- assay.info: Plasma stability (37° C., pH 7.4), mouse
- Type: in vitro ADME, CD-1 mouse
- condition.summary: male, CD-1, mouse, plasma, pH 7.4, mouse plasma, test article 1 μM, 37° C., pH 7.4; read-out: Half-life
measured.attribute: log10(half-life at 1 μM) (log10 of the value in min)

| compound | obs.value |
| --- | --- |
| CCCCC/C=C\C/C=C\CCCCCCCC(=O)OCCNC(=O)CCCCCCCCCCCCCCC | 1.75 |
| CCCCCCCCCCCCCCCC(=O)NCCOC(=O)CCC(=O)OCC(COC(=O)CCC)OC(=O)CCC (stereo not shown) | 0.48 |
| CCCCCCCCCCCCCCCC(=O)NCCOC(=O)CCC(=O)OCC(O)CO (stereo not shown) | 1.11 |
| CCCCCCCCCCCCCCCC(=O)NCCOC(=O)CCC | 1.79 |
| CCCCCCCCCCCCCCCC(=O)NCCOC(=O)CCC(=O)OCC(COC(=O)CCCCCCC)OC(=O)CCCCCCC (stereo not shown) [Compound I-3, PEA-Succinate-Glycerol-Di-Caprylic] | 0.97 |

---

Listed here are compounds together with their documented microsomal CLint at 1 μM.
- assay.info: in vitro
- condition.summary: male, Beagle, dog, microsomes, CLint, calculated value in parentheses

| compound.smiles | units.text | microsomal CLint at 1 μM |
| --- | --- | --- |
| CCCCCCCCCCCCCCCC(=O)NCCOC(=O)CCC(=O)OC(COC(=O)CCC)COC(=O)CCC | µL/min/mg | 618 |
| CC/C=C\C/C=C\C/C=C\C/C=C\C/C=C\CCCC(=O)OCCNC(=O)CCCCCCCCCCCCCCC | µL/min/mg | 13.3 |

---

- assay.info: Simulated intestinal fluid (SIF) stability in the presence of various enzymes
- Type: in vitro ADME
- condition.summary: simulated intestinal fluid with elastase, pH 6.8, SIF + Elastase; read-out: Half-life

| molecule | qualifier.symbol | half-life at 1 μM, min |
| --- | --- | --- |
| CCCCCCCCCCCCCCCC(=O)NCCOC(=O)CCC(=O)OC(COC(=O)CCC)COC(=O)CCC [Compound I-16] | = | 31 |
| CCCCCCCCCCCCCCCC(=O)NCCOC(=O)CCC(=O)OC(CO)CO [Compound I-8] | < | 15 |

---

- assay.info: in vitro
- condition.summary: male, Beagle, dog, 10 min, 1 μM
Listed here are compounds together with their documented Concentration (μM) of analyte PEA, 10 min.
measured.attribute: Concentration (μM) of analyte PEA, 10 min (µM)

| compound | obs.value |
| --- | --- |
| CCCCCCCCCCCCCCCC(=O)NCCOC(=O)CCC(=O)OCC(COC(=O)CCCCCCC)OC(=O)CCCCCCC (stereo not shown) [Compound I-3, PEA-Succinate-Glycerol-Di-Caprylic] | 0.23 |
| CCCCCCCCCCCCCCCC(=O)NCCOC(=O)CCC | 0.40 |
| CCCCCCCCCCCCCCCC(=O)NCCOC(=O)CCC(=O)OCC(COC(=O)CCC)OC(=O)CCC (stereo not shown) | 0.23 |
| CCCCCCCCCCCCCCCC(=O)NCCOC(=O)CCC(=O)OC[C@H]1O[C@@](CO)(O[C@H]2O[C@H](CO)[C@@H](O)[C@H](O)[C@H]2O)[C@@H](O)[C@@H]1O | 0.36 |
| CCCCCCCCCCCCCCCC(=O)NCCOC(=O)CCC(=O)OCC(O)CO (stereo not shown) | 0.48 |
| CC/C=C\C/C=C\C/C=C\C/C=C\C/C=C\CCCC(=O)OCCNC(=O)CCCCCCCCCCCCCCC | 0.26 |
| CCCCC/C=C\C/C=C\CCCCCCCC(=O)OCCNC(=O)CCCCCCCCCCCCCCC | 0.42 |
